READOUT KIND: pIC50
Quick note: pIC50 means taking -log10 of the concentration in moles per liter.

(Q) Look up pIC50 with Chromatin remodeling regulator CECR2 (Homo sapiens) for this compound: CC1(C2CC2)NC(=O)N(CC(=O)Nc2ccc(Br)c(S(=O)(=O)N3CCCCC3)c2)C1=O (racemic)
Sequence (Q9BXF3 whole entry): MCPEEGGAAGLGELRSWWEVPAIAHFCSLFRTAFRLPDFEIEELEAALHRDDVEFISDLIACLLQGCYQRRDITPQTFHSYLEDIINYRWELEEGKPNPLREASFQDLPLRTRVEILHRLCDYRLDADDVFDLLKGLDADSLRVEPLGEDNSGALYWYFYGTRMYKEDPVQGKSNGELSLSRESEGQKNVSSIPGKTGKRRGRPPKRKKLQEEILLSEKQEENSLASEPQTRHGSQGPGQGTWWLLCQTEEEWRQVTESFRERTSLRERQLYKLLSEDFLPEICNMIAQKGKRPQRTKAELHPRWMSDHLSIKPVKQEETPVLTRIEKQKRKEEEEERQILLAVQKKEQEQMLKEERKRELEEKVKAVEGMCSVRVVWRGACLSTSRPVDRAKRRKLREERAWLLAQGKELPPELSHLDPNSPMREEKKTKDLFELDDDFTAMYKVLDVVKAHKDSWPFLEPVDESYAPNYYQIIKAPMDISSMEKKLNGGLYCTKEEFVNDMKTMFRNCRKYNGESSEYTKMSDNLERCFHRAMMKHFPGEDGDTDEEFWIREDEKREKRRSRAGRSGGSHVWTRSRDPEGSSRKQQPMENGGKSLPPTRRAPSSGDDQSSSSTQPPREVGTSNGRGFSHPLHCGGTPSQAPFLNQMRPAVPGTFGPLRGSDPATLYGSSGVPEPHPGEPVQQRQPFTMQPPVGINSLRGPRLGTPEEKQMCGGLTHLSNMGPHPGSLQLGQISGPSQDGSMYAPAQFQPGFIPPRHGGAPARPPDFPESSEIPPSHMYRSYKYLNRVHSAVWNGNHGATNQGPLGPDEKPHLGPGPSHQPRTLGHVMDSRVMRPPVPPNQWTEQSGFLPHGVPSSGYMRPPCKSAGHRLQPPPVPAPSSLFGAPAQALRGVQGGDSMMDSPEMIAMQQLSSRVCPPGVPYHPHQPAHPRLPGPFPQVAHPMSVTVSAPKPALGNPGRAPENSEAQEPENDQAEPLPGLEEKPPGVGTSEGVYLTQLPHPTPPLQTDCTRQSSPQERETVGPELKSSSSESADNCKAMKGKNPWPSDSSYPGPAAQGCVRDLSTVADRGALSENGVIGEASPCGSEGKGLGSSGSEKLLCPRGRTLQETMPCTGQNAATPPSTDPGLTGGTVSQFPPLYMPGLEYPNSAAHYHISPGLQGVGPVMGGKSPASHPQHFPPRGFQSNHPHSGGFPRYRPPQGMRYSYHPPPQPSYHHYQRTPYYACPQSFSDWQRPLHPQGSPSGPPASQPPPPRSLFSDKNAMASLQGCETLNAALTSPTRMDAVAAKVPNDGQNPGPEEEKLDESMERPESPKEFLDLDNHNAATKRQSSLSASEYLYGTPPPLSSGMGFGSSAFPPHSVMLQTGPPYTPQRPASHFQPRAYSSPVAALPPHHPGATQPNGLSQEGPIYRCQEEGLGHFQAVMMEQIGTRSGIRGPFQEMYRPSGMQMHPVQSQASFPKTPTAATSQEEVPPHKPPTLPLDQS
(A) 5.60

----------
- TARGET SYSTEM: Bromodomain testis-specific protein (Homo sapiens, UniProt Q58F21, Y309A)
- PROCEDURE SUMMARY: Displacement of Alexa Fluor 647 labelled ligand from His6/FLAG-tagged TEV fused BRDT BD1(1 to 397 residues)/BD2 Y309A mutant (unknown origin) after 30 mins by TR-FRET assay
READOUT KIND: IC50 (µM)
Provide the reading as a plain figure in µM.

(Q) Look up IC50 with Bromodomain testis-specific protein (Homo sapiens, UniProt Q58F21, Y309A) for this compound: CC1(C2CC2)NC(=O)N(CC(=O)Nc2ccc(Br)c(S(=O)(=O)N3CCCCC3)c2)C1=O (racemic)
(A) 25.1

----------
- TARGET SYSTEM: ATPase family AAA domain-containing protein 2B (Homo sapiens, UniProt Q9ULI0)
- Sequence (Q9ULI0 whole entry, the tested form may be a part): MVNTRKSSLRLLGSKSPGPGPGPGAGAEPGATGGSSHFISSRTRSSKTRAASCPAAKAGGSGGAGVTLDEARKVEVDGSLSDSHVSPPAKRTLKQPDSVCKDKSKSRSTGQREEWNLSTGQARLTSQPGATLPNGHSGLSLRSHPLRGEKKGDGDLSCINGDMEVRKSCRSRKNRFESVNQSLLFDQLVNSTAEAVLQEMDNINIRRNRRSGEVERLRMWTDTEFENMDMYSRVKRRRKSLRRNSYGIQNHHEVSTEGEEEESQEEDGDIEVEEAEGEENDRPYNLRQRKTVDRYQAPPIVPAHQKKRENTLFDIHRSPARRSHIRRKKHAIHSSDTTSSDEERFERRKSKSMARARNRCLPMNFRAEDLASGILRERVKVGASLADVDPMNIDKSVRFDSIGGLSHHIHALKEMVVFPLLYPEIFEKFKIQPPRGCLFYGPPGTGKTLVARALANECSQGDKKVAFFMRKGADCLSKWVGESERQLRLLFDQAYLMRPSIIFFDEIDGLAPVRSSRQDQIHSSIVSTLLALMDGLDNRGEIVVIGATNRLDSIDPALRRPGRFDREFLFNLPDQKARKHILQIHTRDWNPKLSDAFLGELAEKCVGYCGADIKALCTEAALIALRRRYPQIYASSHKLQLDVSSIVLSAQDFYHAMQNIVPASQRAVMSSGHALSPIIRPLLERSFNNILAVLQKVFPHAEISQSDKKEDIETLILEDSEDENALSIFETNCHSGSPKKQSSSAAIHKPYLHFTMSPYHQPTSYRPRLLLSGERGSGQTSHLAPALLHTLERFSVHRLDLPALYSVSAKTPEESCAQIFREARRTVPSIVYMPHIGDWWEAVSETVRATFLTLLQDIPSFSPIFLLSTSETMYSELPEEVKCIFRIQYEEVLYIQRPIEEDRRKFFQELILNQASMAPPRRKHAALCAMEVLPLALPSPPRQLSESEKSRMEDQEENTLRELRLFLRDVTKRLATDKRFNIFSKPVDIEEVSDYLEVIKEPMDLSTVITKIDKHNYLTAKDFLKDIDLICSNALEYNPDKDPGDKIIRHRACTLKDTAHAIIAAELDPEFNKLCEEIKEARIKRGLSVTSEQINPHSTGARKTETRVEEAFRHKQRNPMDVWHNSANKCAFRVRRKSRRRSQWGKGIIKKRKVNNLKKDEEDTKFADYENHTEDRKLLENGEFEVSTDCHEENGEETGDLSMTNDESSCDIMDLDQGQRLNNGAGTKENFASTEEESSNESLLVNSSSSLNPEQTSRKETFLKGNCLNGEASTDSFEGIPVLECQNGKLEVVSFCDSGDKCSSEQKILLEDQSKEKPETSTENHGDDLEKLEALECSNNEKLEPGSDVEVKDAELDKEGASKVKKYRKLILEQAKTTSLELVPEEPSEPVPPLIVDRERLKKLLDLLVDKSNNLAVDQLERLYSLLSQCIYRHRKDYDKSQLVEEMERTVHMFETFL
- PROCEDURE SUMMARY: Displacement of biotinylated H4 peptide from ATAD2B bromodomain (unknown origin) by TR-FRET assay
READOUT KIND: IC50 (nM)
Provide the reading as a plain figure in nM.

(Q) Param item = CC1(C2CC2)NC(=O)N(CC(=O)Nc2ccc(Br)c(S(=O)(=O)N3CCCCC3)c2)C1=O (racemic) ; retrieve measured IC50.
(A) 501

----------
- TARGET SYSTEM: ATPase family AAA domain-containing protein 2 (Homo sapiens)
- Sequence (whole entry): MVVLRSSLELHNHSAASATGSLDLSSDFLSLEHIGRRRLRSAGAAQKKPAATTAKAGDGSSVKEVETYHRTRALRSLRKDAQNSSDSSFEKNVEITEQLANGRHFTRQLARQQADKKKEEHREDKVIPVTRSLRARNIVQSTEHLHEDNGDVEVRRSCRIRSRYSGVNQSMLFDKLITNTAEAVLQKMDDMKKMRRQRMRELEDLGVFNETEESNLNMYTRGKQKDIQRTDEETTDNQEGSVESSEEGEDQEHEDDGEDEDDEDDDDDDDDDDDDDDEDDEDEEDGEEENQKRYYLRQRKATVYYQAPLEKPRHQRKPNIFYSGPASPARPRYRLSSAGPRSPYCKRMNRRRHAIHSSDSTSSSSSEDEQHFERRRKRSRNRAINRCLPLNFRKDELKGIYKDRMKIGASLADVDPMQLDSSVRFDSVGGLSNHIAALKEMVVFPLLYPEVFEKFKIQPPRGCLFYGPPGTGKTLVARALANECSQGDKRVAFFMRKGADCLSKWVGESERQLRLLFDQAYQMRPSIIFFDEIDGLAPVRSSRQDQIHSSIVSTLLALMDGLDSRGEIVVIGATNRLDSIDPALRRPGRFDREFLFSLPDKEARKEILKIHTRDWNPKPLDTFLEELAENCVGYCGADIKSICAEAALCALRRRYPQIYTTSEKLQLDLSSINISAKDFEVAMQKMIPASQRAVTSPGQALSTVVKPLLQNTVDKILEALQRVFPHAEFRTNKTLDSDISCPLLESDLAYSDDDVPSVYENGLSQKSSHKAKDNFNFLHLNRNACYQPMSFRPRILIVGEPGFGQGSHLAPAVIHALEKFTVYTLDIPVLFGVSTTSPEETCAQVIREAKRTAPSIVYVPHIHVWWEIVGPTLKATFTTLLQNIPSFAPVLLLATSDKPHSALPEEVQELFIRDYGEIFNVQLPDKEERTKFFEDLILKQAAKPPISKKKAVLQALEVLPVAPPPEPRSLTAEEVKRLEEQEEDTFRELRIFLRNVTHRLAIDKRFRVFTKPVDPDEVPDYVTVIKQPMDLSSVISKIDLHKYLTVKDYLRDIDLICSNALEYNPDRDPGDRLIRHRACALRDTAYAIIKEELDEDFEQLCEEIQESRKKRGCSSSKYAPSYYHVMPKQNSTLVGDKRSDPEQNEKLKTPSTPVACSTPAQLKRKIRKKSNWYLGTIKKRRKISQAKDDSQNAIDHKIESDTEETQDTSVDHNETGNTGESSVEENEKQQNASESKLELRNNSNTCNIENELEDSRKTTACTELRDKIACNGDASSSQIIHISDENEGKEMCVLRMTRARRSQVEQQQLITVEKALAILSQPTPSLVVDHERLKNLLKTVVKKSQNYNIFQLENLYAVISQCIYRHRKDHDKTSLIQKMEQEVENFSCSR
- PROCEDURE SUMMARY: Displacement of SGRG-K(Ac)-GG-K(Ac)-GLG-K(Ac)-GGAKRHRKV-biotin) from His6/FLAG-tagged TEV fused ATAD2 bromodomain (981 to 1121 residues) (unknown origin) expressed in Escherichia coli BL21(DE3) cells at 10 uM after 30 mins by TR-FRET assay relative to control
Each entry gets -1 if its inhibition stays under 50%, and 1 if its inhibition is 50% or above.

(Q) Identify whether the reported inhibition of the following compound is 50% or greater: Cc1ccc(NC(=O)CN2C(=O)NC(Cc3ccccc3)C2=O)cc1S(=O)(=O)N1CCCCC1 (stereo unspecified)
(A) -1

(Q) Identify whether the reported inhibition of the following compound is 50% or greater: O=C(CCNC1=NS(=O)(=O)c2ccccc21)Nc1ccc(Cl)c(S(=O)(=O)N2CCCC2)c1
(A) -1

(Q) Identify whether the reported inhibition of the following compound is 50% or greater: Cc1ccc(NC(=O)CN2C(=O)NC(C)(C3CC3)C2=O)cc1S(=O)(=O)N1CCCCC1 (stereo unspecified)
(A) 1

(Q) Identify whether the reported inhibition of the following compound is 50% or greater: O=C(CNC(=O)C1CCCCC1)Nc1ccc(Cl)c(S(=O)(=O)N2CCCCC2)c1
(A) -1

(Q) Identify whether the reported inhibition of the following compound is 50% or greater: CC1(C2CC2)NC(=O)N(CC(=O)Nc2ccc(Cl)c(S(=O)(=O)N3CCCCC3)c2)C1=O (racemic)
(A) 1

(Q) Identify whether the reported inhibition of the following compound is 50% or greater: Cc1ccc(NC(=O)CN2C(=O)NC(C)(C)C2=O)cc1S(=O)(=O)N1CCCCCC1
(A) 1

(Q) Identify whether the reported inhibition of the following compound is 50% or greater: Cc1ccccc1C(=O)NCC(=O)Nc1ccc(C)c(S(=O)(=O)N2CCCCCC2)c1
(A) -1

(Q) Identify whether the reported inhibition of the following compound is 50% or greater: O=C(CN1C(=O)NC(CCc2ccccc2)C1=O)Nc1ccc(Cl)c(S(=O)(=O)N2CCCCC2)c1 (stereo unspecified)
(A) -1

(Q) Identify whether the reported inhibition of the following compound is 50% or greater: Cc1[nH]c(=O)c(C#N)c(C)c1CCC(=O)Nc1ccc(Cl)c(S(=O)(=O)N2CCCCC2)c1
(A) 1

(Q) Identify whether the reported inhibition of the following compound is 50% or greater: Cc1ccc(C2(C)NC(=O)N(CC(=O)Nc3ccc(C)c(S(=O)(=O)N4CCCCC4)c3)C2=O)cc1 (stereo unspecified)
(A) -1

(Q) Identify whether the reported inhibition of the following compound is 50% or greater: O=C(CCNC(=O)c1ccccc1)Nc1ccc(Cl)c(S(=O)(=O)N2CCCCC2)c1
(A) -1

(Q) Identify whether the reported inhibition of the following compound is 50% or greater: Cc1ccc(NC(=O)CN2C(=O)NC3(CCc4ccccc43)C2=O)cc1S(=O)(=O)N1CCCCC1 (stereo unspecified)
(A) 1

(Q) Identify whether the reported inhibition of the following compound is 50% or greater: CCN(CC)S(=O)(=O)c1cc(NC(=O)CN2C(=O)NC(C)(c3ccccc3)C2=O)ccc1C (stereo unspecified)
(A) -1

(Q) Identify whether the reported inhibition of the following compound is 50% or greater: CN(C)S(=O)(=O)c1cc(NC(=O)CN2C(=O)NC3(CCCc4ccccc43)C2=O)ccc1Cl (stereo unspecified)
(A) 1

(Q) Identify whether the reported inhibition of the following compound is 50% or greater: Cc1ccc(NC(=O)CN2C(=O)CN(C)C2=O)cc1S(=O)(=O)N1CCCCC1
(A) -1
